Measured values drawn from ChEMBL document CHEMBL5108050 for this set.

# tgt: Receptor-interacting serine/threonine-protein kinase 3 (Homo sapiens) (UniProt Q9Y572)
# Sequence (Q9Y572 whole entry, looked up): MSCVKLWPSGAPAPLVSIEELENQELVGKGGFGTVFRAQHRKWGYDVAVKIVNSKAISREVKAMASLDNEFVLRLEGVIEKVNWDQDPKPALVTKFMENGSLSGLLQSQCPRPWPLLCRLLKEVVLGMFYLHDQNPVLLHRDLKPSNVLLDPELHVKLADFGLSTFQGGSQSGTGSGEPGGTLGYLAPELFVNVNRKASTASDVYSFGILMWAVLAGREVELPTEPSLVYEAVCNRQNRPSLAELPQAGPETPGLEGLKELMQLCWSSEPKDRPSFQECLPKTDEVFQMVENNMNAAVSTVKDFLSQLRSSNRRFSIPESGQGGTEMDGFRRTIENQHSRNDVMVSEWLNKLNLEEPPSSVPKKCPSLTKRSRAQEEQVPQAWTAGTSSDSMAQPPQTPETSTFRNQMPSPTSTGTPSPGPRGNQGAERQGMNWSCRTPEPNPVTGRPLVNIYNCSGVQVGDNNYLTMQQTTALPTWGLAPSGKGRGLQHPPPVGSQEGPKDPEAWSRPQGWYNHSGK
# experimental_details: Inhibition of full length RIP3 (unknown origin) assessed as substrate phosphorylation using MBP and ATP as substrate at 10 uM preincubated for 15 mins followed by substrate addition and measured after 90 mins by ADP-Glo luminescence assay; values are per cent of control
# conditions_used: time 105.0 min
measured_quantity: residual activity (%)
The response must be a number in % with no trailing unit.

[
  {
    "chemical_structure": "COc1cccn(Cc2cc(C#CCn3c(Cl)c(NC(=O)CCc4ccc(C)cc4)c(=O)n(C)c3=O)ccc2O)c1=O",
    "residual activity, %": 110
  },
  {
    "chemical_structure": "Cc1ccc(CCC(=O)Nc2c(Cl)n(CC#Cc3ccc(O)c(Cn4ccccc4=O)c3)c(=O)n(C)c2=O)cc1",
    "residual activity, %": 99.8
  },
  {
    "chemical_structure": "Cc1ccc(C(=O)Nc2ccc(CN3CCN(C)CC3)c(C(F)(F)F)c2)cc1C#Cc1cnc2cccnn12",
    "residual activity, %": 0.31
  },
  {
    "chemical_structure": "C=CC(=O)Nc1c(Cl)n(CC#Cc2cccc(O)c2)c(=O)n(C)c1=O",
    "residual activity, %": 108
  },
  {
    "chemical_structure": "Cc1ccc(CCC(=O)Nc2c(Cl)n(CC#Cc3ccc4c(c3)CCC(=O)N4)c(=O)n(C)c2=O)cc1",
    "residual activity, %": 90.5
  }
]

Result for Cc1ccc(CCC(=O)Nc2c(Cl)n(CC#Cc3ccc(O)cc3)c(=O)n(C)c2=O)cc1 , tested on Receptor-interacting serine/threonine-protein kinase 3 (Homo sapiens) (UniProt Q9Y572), residual activity: 102

Result for COc1ccc(C#CCn2c(Cl)c(NC(=O)CCc3ccc(C)cc3)c(=O)n(C)c2=O)cc1Cn1cccc(OC)c1=O , tested on Receptor-interacting serine/threonine-protein kinase 3 (Homo sapiens) (UniProt Q9Y572), residual activity: 99.3

---

# tgt: Receptor-interacting serine/threonine-protein kinase 1 (Homo sapiens)
# experimental_details: Inhibition of RIP1 (1 to 375 residues) (unknown origin) assessed as substrate phosphorylation using MBP and ATP as substrate at 10 uM preincubated for 15 mins followed by substrate addition and measured after 90 mins by ADP-Glo luminescence assay; values are per cent of control
# conditions_used: time 105.0 min
Entry flag: Y if residual activity reaches 90%; N if it does not.

Please review the entries below; each comes with its answer.
[
  {
    "compound": "Cc1ccc(C(=O)Nc2ccc(CN3CCN(C)CC3)c(C(F)(F)F)c2)cc1C#Cc1cnc2cccnn12 [PONATINIB]",
    "tgt": "Receptor-interacting serine/threonine-protein kinase 1 (Homo sapiens)",
    "class": "N"
  },
  {
    "compound": "Cc1ccc(CCC(=O)Nc2c(Cl)n(CC#Cc3ccc4c(c3)CCC(=O)N4)c(=O)n(C)c2=O)cc1",
    "tgt": "Receptor-interacting serine/threonine-protein kinase 1 (Homo sapiens)",
    "class": "Y"
  },
  {
    "compound": "Cc1ccc(CCC(=O)Nc2c(Cl)n(CC#Cc3ccc(O)c(Cn4ccccc4=O)c3)c(=O)n(C)c2=O)cc1",
    "tgt": "Receptor-interacting serine/threonine-protein kinase 1 (Homo sapiens)",
    "class": "N"
  },
  {
    "compound": "C=CC(=O)Nc1c(Cl)n(CC#Cc2cccc(O)c2)c(=O)n(C)c1=O",
    "tgt": "Receptor-interacting serine/threonine-protein kinase 1 (Homo sapiens)",
    "class": "N"
  },
  {
    "compound": "COc1cccn(Cc2cc(C#CCn3c(Cl)c(NC(=O)CCc4ccc(C)cc4)c(=O)n(C)c3=O)ccc2O)c1=O",
    "tgt": "Receptor-interacting serine/threonine-protein kinase 1 (Homo sapiens)",
    "class": "Y"
  },
  {
    "compound": "Cc1ccc(CCC(=O)Nc2c(Cl)n(CC#Cc3ccc(O)cc3)c(=O)n(C)c2=O)cc1",
    "tgt": "Receptor-interacting serine/threonine-protein kinase 1 (Homo sapiens)",
    "class": "Y"
  }
]

Proceed to the following item.
Qu. Exam item: decide whether the reported residual activity for COc1ccc(C#CCn2c(Cl)c(NC(=O)CCc3ccc(C)cc3)c(=O)n(C)c2=O)cc1Cn1cccc(OC)c1=O is at least 90%.
Ans. Y

---

# tgt: Receptor-interacting serine/threonine-protein kinase 1 (Homo sapiens) (UniProt Q13546)
# Sequence (whole entry): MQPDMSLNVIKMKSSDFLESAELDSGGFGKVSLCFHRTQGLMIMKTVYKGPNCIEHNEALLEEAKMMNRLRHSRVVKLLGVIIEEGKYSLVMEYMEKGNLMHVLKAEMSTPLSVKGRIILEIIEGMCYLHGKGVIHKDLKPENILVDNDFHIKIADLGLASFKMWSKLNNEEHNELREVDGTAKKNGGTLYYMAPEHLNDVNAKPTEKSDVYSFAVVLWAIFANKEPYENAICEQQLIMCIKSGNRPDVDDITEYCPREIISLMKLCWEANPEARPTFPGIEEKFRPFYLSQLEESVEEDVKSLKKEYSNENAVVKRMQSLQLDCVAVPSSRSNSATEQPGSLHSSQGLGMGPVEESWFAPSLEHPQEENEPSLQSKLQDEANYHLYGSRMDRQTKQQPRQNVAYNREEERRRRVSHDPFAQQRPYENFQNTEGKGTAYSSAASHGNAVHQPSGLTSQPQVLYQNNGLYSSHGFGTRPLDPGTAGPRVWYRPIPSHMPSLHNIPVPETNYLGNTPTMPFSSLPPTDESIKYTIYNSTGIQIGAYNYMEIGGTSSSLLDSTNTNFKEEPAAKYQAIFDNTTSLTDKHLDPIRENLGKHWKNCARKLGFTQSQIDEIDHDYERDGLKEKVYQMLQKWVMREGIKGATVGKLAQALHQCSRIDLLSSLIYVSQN
# experimental_details: Inhibition of RIP1 (1 to 375 residues) (unknown origin) assessed as substrate phosphorylation using MBP and ATP as substrate at 1 uM preincubated for 15 mins followed by substrate addition and measured after 90 mins by ADP-Glo luminescence assay; values are per cent of control
# conditions_used: time 105.0 min
Entry flag: Met if residual activity reaches 90%; Not met if it does not.

[
  {
    "chemical_structure": "C=CC(=O)Nc1c(Cl)n(CC#Cc2cccc(O)c2)c(=O)n(C)c1=O",
    "class": "Not met"
  },
  {
    "chemical_structure": "COc1cccn(Cc2cc(C#CCn3c(Cl)c(NC(=O)CCc4ccc(C)cc4)c(=O)n(C)c3=O)ccc2O)c1=O",
    "class": "Met"
  },
  {
    "chemical_structure": "COc1ccc(C#CCn2c(Cl)c(NC(=O)CCc3ccc(C)cc3)c(=O)n(C)c2=O)cc1Cn1cccc(OC)c1=O",
    "class": "Met"
  },
  {
    "chemical_structure": "Cc1ccc(C(=O)Nc2ccc(CN3CCN(C)CC3)c(C(F)(F)F)c2)cc1C#Cc1cnc2cccnn12",
    "class": "Not met"
  }
]

Proceed to the following item.
Qu. Exam item: decide whether the reported residual activity for Cc1ccc(CCC(=O)Nc2c(Cl)n(CC#Cc3ccc4c(c3)CCC(=O)N4)c(=O)n(C)c2=O)cc1 is at least 90%.
Ans. Met

---

The following molecules are shown together with reported residual activity values.
# tgt: Receptor-interacting serine/threonine-protein kinase 3 (Homo sapiens)
# experimental_details: Inhibition of full length RIP3 (unknown origin) assessed as substrate phosphorylation using MBP and ATP as substrate at 1 uM preincubated for 15 mins followed by substrate addition and measured after 90 mins by ADP-Glo luminescence assay; values are per cent of control
# conditions_used: time 105.0 min
The response must be a number in % with no trailing unit.

Looking up Cc1ccc(CCC(=O)Nc2c(Cl)n(CC#Cc3ccc4c(c3)CCC(=O)N4)c(=O)n(C)c2=O)cc1 , I found its residual activity recorded as 102

---

# Tested on: HT-29
# experimental_details: Anti-necroptic activity in human HT-29 cells assessed as inhibition of TSZ induced necroptosis incubated for 3 hrs followed by TSZ stimulation by celltiter-glo luminescent cell viability assay
# Type: functional, cell-based
# conditions_used: HT-29, 3 h
measured_quantity: EC50
State the result as a value with its unit after it.

Looking up Cc1ccc(CCC(=O)Nc2c(Cl)n(CC#Cc3ccc(O)c(Cn4ccccc4=O)c3)c(=O)n(C)c2=O)cc1 , I found its EC50 recorded as 188 nM

---

# experimental_details: GSH reactivity in DPBS buffer assessed as conjugation half life by UPLC-MS analysis
# Format: ADME
# conditions_used: glutathione (GSH) in DPBS buffer
measured_quantity: half-life (min)
The response must be a number in min with no trailing unit.

Looking up Cn1c(=O)c2c(nc(S(C)(=O)=O)n2C)n(CC#Cc2cccc(O)c2)c1=O , I found its half-life recorded as 20

---

# tgt: Receptor-interacting serine/threonine-protein kinase 3 (Homo sapiens)
# experimental_details: Inhibition of full length RIP3 (unknown origin) assessed as substrate phosphorylation using MBP and ATP as substrate at 1 uM preincubated for 15 mins followed by substrate addition and measured after 90 mins by ADP-Glo luminescence assay; values are per cent of control
# conditions_used: time 105.0 min
measured_quantity: residual activity

Reference set (5 entries):
[
  {
    "molecule": "Cc1ccc(C(=O)Nc2ccc(CN3CCN(C)CC3)c(C(F)(F)F)c2)cc1C#Cc1cnc2cccnn12 [PONATINIB]",
    "residual activity": "0.97%"
  },
  {
    "molecule": "COc1ccc(C#CCn2c(Cl)c(NC(=O)CCc3ccc(C)cc3)c(=O)n(C)c2=O)cc1Cn1cccc(OC)c1=O",
    "residual activity": "96.3%"
  },
  {
    "molecule": "Cc1ccc(CCC(=O)Nc2c(Cl)n(CC#Cc3ccc(O)cc3)c(=O)n(C)c2=O)cc1",
    "residual activity": "90.5%"
  },
  {
    "molecule": "C=CC(=O)Nc1c(Cl)n(CC#Cc2cccc(O)c2)c(=O)n(C)c1=O",
    "residual activity": "102%"
  },
  {
    "molecule": "COc1cccn(Cc2cc(C#CCn3c(Cl)c(NC(=O)CCc4ccc(C)cc4)c(=O)n(C)c3=O)ccc2O)c1=O",
    "residual activity": "110%"
  }
]

Result for Cc1ccc(CCC(=O)Nc2c(Cl)n(CC#Cc3ccc(O)c(Cn4ccccc4=O)c3)c(=O)n(C)c2=O)cc1 , tested on Receptor-interacting serine/threonine-protein kinase 3 (Homo sapiens), residual activity: 100%
